Values compiled from patent US5519006A.

Molecular target: Rat β2 adrenoceptor (Rattus norvegicus)
Construct: Rat uterine horns were removed and bisected longitudinally; from tissue; host or cells: rat uterine horns (uterine strips)
Sequence (P10608 whole entry): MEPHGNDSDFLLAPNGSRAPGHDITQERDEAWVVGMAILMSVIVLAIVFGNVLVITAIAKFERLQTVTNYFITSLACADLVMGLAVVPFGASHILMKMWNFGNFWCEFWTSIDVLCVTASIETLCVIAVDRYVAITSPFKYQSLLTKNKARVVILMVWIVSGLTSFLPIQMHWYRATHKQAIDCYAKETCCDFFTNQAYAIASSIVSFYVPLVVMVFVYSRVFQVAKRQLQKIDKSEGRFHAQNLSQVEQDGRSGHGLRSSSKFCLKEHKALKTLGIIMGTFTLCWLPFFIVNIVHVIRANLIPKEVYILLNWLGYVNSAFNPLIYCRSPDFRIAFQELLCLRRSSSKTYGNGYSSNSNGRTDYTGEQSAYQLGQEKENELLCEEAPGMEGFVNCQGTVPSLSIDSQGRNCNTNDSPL
Experiment: β2-Adrenoceptor agonism, inhibition of contraction of K+-pre-contracted uterine strips
Type: cell-based
Settings: pre-contracted with 40 mM K+
Experimental: Agonist Activity at Rat β1 and β2 Adrenoceptors In Vitro Rat uterine horns were removed and bisected longitudinally. Each tissue was tied to a glass tissue holder and placed in Krebs-Henseleit solution in a 30 ml organ bath as before. Tissues were placed under a resting tension of 1 g and allowed to equilibrate. […]
METRIC: Ki

In [3]: df
Out[3]:
                                   molecule  reported_value
0  CCOP(=O)(O)COc1ccc(C[C@@H](C)NC[C@H](O)c2cccc(Cl)c2)cc1 (relative stereo) [Example 2]        10000 nM

----------
Molecular target: Rat β1 adrenoceptor (Rattus norvegicus, UniProt P18090)
Construct: Spontaneously beating right atria were removed; from tissue; host or cells: right atria of female Sprague-Dawley rats
Sequence (P18090 whole entry): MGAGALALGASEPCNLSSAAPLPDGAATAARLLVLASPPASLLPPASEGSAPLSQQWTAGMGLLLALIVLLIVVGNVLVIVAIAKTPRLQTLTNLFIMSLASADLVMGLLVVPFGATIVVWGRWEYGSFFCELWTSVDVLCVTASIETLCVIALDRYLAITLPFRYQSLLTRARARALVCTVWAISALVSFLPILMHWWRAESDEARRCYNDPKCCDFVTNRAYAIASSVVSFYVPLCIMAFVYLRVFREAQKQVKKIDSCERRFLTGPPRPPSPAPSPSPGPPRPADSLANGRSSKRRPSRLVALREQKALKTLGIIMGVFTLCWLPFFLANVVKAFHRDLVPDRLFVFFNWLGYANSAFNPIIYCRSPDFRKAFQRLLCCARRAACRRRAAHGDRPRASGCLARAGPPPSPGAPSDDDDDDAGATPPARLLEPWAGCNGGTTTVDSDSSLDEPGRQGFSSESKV
Experiment: β1-Adrenoceptor agonism, increase in rate of spontaneously beating right atria
Assay type: cell-based, Rat (female Sprague-Dawley)
Settings: in vitro, 37° C., Krebs-Henseleit solution
METRIC: Ki

                                   molecule  metric  reported_value
0  CCOP(=O)(O)COc1ccc(C[C@@H](C)NC[C@H](O)c2cccc(Cl)c2)cc1 (relative stereo)      Ki        37600 nM

----------
System: Rat white adipocytes
Test: Lipolysis stimulated in rat white adipocytes (glycerol release)
Assay type: cell-based
Settings: Adipocyte, 0.5 h, 30 minutes
Description: Rat white adipocytes were prepared by collagenase digestion as described by Rodbell (1964) with the modification of Honnor et al. (1985), in that adenosine (200 nM) was included in the preparation to inhibit basal lipolysis. Lipolysis stimulated by β-agonists was measured over 30 minutes in medium where the adenosine concentration was controlled; the medium included (-)-N^6 -(2-phenylisopropyl)adenosine (100 nM)+deaminase as decribed by Honnor et al. (1985). […]
METRIC: EC50

>>> print(df.to_string())
                                   compound             tested_on  metric  reported_value
0  CCOP(=O)(O)COc1ccc(C[C@@H](C)NC[C@H](O)c2cccc(Cl)c2)cc1 (relative stereo)  Rat white adipocytes    EC50           77 nM
